Test system: Noggin (protein binding on small-molecule microarray)
Experiment: small molecules binding Noggin protein – biochemical, 635/667 nm fluorescence, primary screen (AID 1095);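 note: score merges 667 nm feature fluorescence with signal to noise over triplicate slides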
Details: 635 nm fluorescence, higher = more signal
Listed below: composite z-score values for each entry.
Number, no unit, nothing else.

// worked examples, composite z-score included
{"columns": ["compound", "experimental-target", "composite z-score"],
 "data": [
  ["CN(C)c1ccc(C(O)C2C=CC3C(=O)NC(=O)C3N2Nc2ccccn2)cc1 (stereo not given)", "Noggin (protein binding on small-molecule microarray)", 0.438],
  ["COC(=O)[C@@]1(Cc2ccc(OC)cc2)[C@H]2c3cc(C(=O)N(C)C)n(Cc4ccc(OC(F)(F)F)cc4)c3C[C@H]2CN1C(=O)c1ccccc1", "Noggin (protein binding on small-molecule microarray)", -0.588],
  ["C=CC[C@@H](OC(=O)Nc1ccc(OC)cc1)c1ccc(O)c(F)c1", "Noggin (protein binding on small-molecule microarray)", -0.488],
  ["COc1ccc(CCNC(=O)[C@@]2(Cc3ccccc3I)c3ccccc3C(=O)N(C3CCCCC3)[C@H]2c2ccc(CO)cc2)cc1", "Noggin (protein binding on small-molecule microarray)", -0.275]
]}

# ---- query compound ----
Quick check: composite z-score on Noggin (protein binding on small-molecule microarray), item [N-]=[N+]=Nc1ccccc1[C@@H]1OC(c2ccc(OCCCO)cc2)=N[C@]1(Cc1ccccc1)C(=O)O ? 0.522
